# Species on record: Mus musculus
# METHOD: Ability to hemolyze ICR mouse RBCs at 1 mg/mL using microtiter red blood cell hemolysis assay.
Numbered stars: 1 amine (or outer) side, 2 acyl side, 3 side chain; on linkers, the order of the positions; unused ones are H or OH. Bridge positions count the residues as written; N and C are the ends. Square brackets hold non-standard residues; d marks the D form. Peptide text beside a SMILES is read from it. ξ: configuration not given here. X2 = O=C(CCC(=O)N1CCNCC1)Nc1cc(C[C@H](N[*:1])C(=O)[*:2])ccc1O; Gln(3R-OH) = NC(=O)C[C@@H](O)[C@H](N)C(=O)O; X1 = CCCCCCCCCCCCC[C@H](CC(=O)[*:1])O[*:2]; Pro(3S-OH) = O=C(O)[C@H]1NCC[C@@H]1O; Hyp = O=C(O)[C@@H]1C[C@@H](O)CN1; Orn = NCCC[C@H](N)C(=O)O; ξA = CC(N)C(=O)O
Define the label as Fulfilled when Hemolytic activity is strictly less than 80% and as Not fulfilled in all remaining cases.

Below, 3 compounds whose answers are already recorded.
[
  {
    "COMPOUND": "CCCCCCCCCCCCC[C@@H]1CC(=O)N[C@@H]([C@@H](C)O)C(=O)NC(C)C(=O)N[C@@H](Cc2ccc(O)c(NC(=O)CCC(=O)N3CCNCC3)c2)C(=O)N[C@@H](C(C)C)C(=O)N2C[C@H](O)C[C@H]2C(=O)N[C@@H]([C@@H](C)O)C(=O)N[C@@H]([C@@H](C)O)C(=O)N2CC[C@H](O)[C@H]2C(=O)N[C@@H]([C@H](O)CC(N)=O)C(=O)NCC(=O)N[C@@H]([C@@H](C)O)C(=O)N[C@@H](CCCN)C(=O)O1 (stereo partly drawn) (T[ξA][X2]V[Hyp]TT[Pro(3S-OH)][Gln(3R-OH)]GT[Orn]; linker N-C via X1)",
    "QUALITATIVE_LABEL": "Fulfilled"
  },
  {
    "COMPOUND": "CCCCCCCCCCCCC[C@H](CC(=O)N[C@@H](C(=O)N[C@H](C)C(=O)N[C@@H](Cc1ccc(O)c(NC(=O)[C@H](N)CO)c1)C(=O)N[C@H](C(=O)N1C[C@H](O)C[C@H]1C(=O)N[C@@H](C(=O)N[C@H](C(=O)N1CC[C@H](O)[C@H]1C(=O)N[C@H](C(=O)NCC(=O)N[C@@H](C(N)=O)[C@@H](C)O)[C@H](O)CC(N)=O)[C@@H](C)O)[C@@H](C)O)C(C)C)[C@@H](C)O)OC(=O)[C@@H](C)CCCN",
    "QUALITATIVE_LABEL": "Not fulfilled"
  },
  {
    "COMPOUND": "CCCCCCCCCCCCC[C@H](CC(=O)N[C@@H](C(=O)N[C@H](C)C(=O)N[C@@H](Cc1ccc(O)c(N)c1)C(=O)N[C@H](C(=O)N1C[C@H](O)C[C@H]1C(=O)N[C@@H](C(=O)N[C@H](C(=O)N1CC[C@H](O)[C@H]1C(=O)N[C@H](C(=O)NCC(=O)N[C@@H](C(N)=O)[C@@H](C)O)[C@H](O)CC(N)=O)[C@@H](C)O)[C@@H](C)O)C(C)C)[C@@H](C)O)OC(=O)[C@@H](C)CCCN",
    "QUALITATIVE_LABEL": "Not fulfilled"
  }
]

Confirm or reject: Hemolytic activity of CCCCCCCCCCCCC[C@@H]1CC(=O)N[C@@H]([C@@H](C)O)C(=O)N[C@H](C)C(=O)N[C@@H](Cc2ccc(O)c(NC(=O)CCN)c2)C(=O)N[C@@H](C(C)C)C(=O)N2C[C@H](O)C[C@H]2C(=O)N[C@@H]([C@@H](C)O)C(=O)N[C@@H]([C@@H](C)O)C(=O)N2CC[C@H](O)[C@H]2C(=O)N[C@@H]([C@H](O)CC(N)=O)C(=O)NCC(=O)N[C@@H]([C@@H](C)O)C(=O)N[C@@H](CCCN)C(=O)O1 lies strictly below 80% Fulfilled

Confirm or reject: Hemolytic activity of CCCCCCCCCCCCC[C@H](CC(=O)N[C@@H](C(=O)N[C@H](C)C(=O)N[C@@H](Cc1ccc(OCC(=O)NCCCn2ccnc2)cc1)C(=O)N[C@H](C(=O)N1C[C@H](O)C[C@H]1C(=O)N[C@@H](C(=O)N[C@H](C(=O)N1CC[C@H](O)[C@H]1C(=O)N[C@H](C(=O)NCC(=O)N[C@@H](C(N)=O)[C@@H](C)O)[C@H](O)CC(N)=O)[C@@H](C)O)[C@@H](C)O)C(C)C)[C@@H](C)O)OC(=O)[C@@H](C)CCCN.Cl lies strictly below 80% Fulfilled

====

# Organism: Mus musculus
# METHOD: Ability to hemolyze ICR mouse RBCs at 1 mg/mL using microtiter red blood cell hemolysis assay.
Numbered stars: 1 amine (or outer) side, 2 acyl side, 3 side chain; on linkers, the order of the positions; unused ones are H or OH. Bridge positions count the residues as written; N and C are the ends. Square brackets hold non-standard residues; d marks the D form. Peptide text beside a SMILES is read from it. Gln(3R-OH) = NC(=O)C[C@@H](O)[C@H](N)C(=O)O; X1 = CCCCCCCCCCCCC[C@H](CC(=O)[*:1])O[*:2]; Pro(3S-OH) = O=C(O)[C@H]1NCC[C@@H]1O; d(aThr) = C[C@@H](O)[C@@H](N)C(=O)O; Hyp = O=C(O)[C@@H]1C[C@@H](O)CN1; Orn = NCCC[C@H](N)C(=O)O
ENDPOINT: Hemolytic activity

Consider the molecule CCCCCCCCCCCCC[C@@H]1CC(=O)N[C@H]([C@@H](C)O)C(=O)N[C@H](C)C(=O)N[C@@H](Cc2ccc(O)cc2)C(=O)N[C@@H](C(C)C)C(=O)N2C[C@H](O)C[C@H]2C(=O)N[C@H]([C@@H](C)O)C(=O)N[C@@H]([C@@H](C)O)C(=O)N2CC[C@H](O)[C@H]2C(=O)N[C@@H]([C@H](O)CC(N)=O)C(=O)NCC(=O)N[C@H]([C@@H](C)O)C(=O)N[C@@H](CCCN)C(=O)O1 [FR-901469] ([d(aThr)][dA]YV[Hyp][d(aThr)]T[Pro(3S-OH)][Gln(3R-OH)]G[d(aThr)][Orn]; linker N-C via X1) and give its measured Hemolytic activity. 100%

====

# System: Candida albicans
# METHOD: In vitro antifungal activity against Candida albicans 13004 by broth microdilution method
# Assay type: functional
Below, each of the compounds is paired with its reported MIC value.
Write down the numeric answer in µg/mL and omit the unit.

[
  {
    "SAMPLE_SMILES": "CCCCCCCCCCCCC[C@H](CC(=O)N[C@@H](C(=O)N[C@H](C)C(=O)N[C@@H](Cc1ccc(O)c(NC(=O)[C@H](N)Cc2c[nH]cn2)c1)C(=O)N[C@H](C(=O)N1C[C@H](O)C[C@H]1C(=O)N[C@@H](C(=O)N[C@H](C(=O)N1CC[C@H](O)[C@H]1C(=O)N[C@H](C(=O)NCC(=O)N[C@@H](C(N)=O)[C@@H](C)O)[C@H](O)CC(N)=O)[C@@H](C)O)[C@@H](C)O)C(C)C)[C@@H](C)O)OC(=O)[C@@H](C)CCCN",
    "UNITS_TEXT": "µg/mL",
    "MIC": 2
  }
]

Consider the compound CCCCCCCCCCCCC[C@H](CC(=O)N[C@@H](C(=O)N[C@H](C)C(=O)N[C@@H](Cc1ccc(O)c(NC(=O)CC[C@H](N)C(=O)O)c1)C(=O)N[C@H](C(=O)N1C[C@H](O)C[C@H]1C(=O)N[C@@H](C(=O)N[C@H](C(=O)N1CC[C@H](O)[C@H]1C(=O)N[C@H](C(=O)NCC(=O)N[C@@H](C(N)=O)[C@@H](C)O)[C@H](O)CC(N)=O)[C@@H](C)O)[C@@H](C)O)C(C)C)[C@@H](C)O)OC(=O)[C@@H](C)CCCN and give its measured MIC. 0.5

Consider the compound CCCCCCCCCCCCC[C@H](CC(=O)N[C@H](C(=O)N[C@H](C)C(=O)N[C@@H](Cc1ccc(OCC(=O)NCCN)cc1)C(=O)N[C@H](C(=O)N1C[C@H](O)C[C@H]1C(=O)N[C@H](C(=O)N[C@H](C(=O)N1CC[C@H](O)[C@H]1C(=O)N[C@H](C(=O)NCC(=O)N[C@H](C(N)=O)[C@@H](C)O)[C@H](O)CC(N)=O)[C@@H](C)O)[C@@H](C)O)C(C)C)[C@@H](C)O)OC(=O)[C@@H](C)CCCN.Cl and give its measured MIC. 1

====

# Species: Mus musculus
# METHOD: Ability to hemolyze ICR mouse RBCs at 1 mg/mL using microtiter red blood cell hemolysis assay.
ENDPOINT: Hemolytic activity (%)
Write down the numeric answer in % and omit the unit.

[
  {
    "SAMPLE_SMILES": "CCCCCCCCCCCCC[C@H](CC(=O)N[C@H](C(=O)N[C@H](C)C(=O)N[C@@H](Cc1ccc(OCC(=O)NCCN)cc1)C(=O)N[C@H](C(=O)N1C[C@H](O)C[C@H]1C(=O)N[C@H](C(=O)N[C@H](C(=O)N1CC[C@H](O)[C@H]1C(=O)N[C@H](C(=O)NCC(=O)N[C@H](C(N)=O)[C@@H](C)O)[C@H](O)CC(N)=O)[C@@H](C)O)[C@@H](C)O)C(C)C)[C@@H](C)O)OC(=O)[C@@H](C)CCCN.Cl",
    "UNITS_TEXT": "%",
    "Hemolytic activity": 45
  }
]

Consider the molecule CCCCCCCCCCCCC[C@H](CC(=O)N[C@@H](C(=O)N[C@H](C)C(=O)N[C@@H](Cc1ccc(O)c(NC(=O)CCN)c1)C(=O)N[C@H](C(=O)N1C[C@H](O)C[C@H]1C(=O)N[C@@H](C(=O)N[C@H](C(=O)N1CC[C@H](O)[C@H]1C(=O)N[C@H](C(=O)NCC(=O)N[C@@H](C(N)=O)[C@@H](C)O)[C@H](O)CC(N)=O)[C@@H](C)O)[C@@H](C)O)C(C)C)[C@@H](C)O)OC(=O)[C@@H](C)CCCNC(C)=O.Cl and give its measured Hemolytic activity. 23
